tested system: Interleukin-8 (Homo sapiens) (UniProt P10145)
Sequence (P10145 whole entry, looked up): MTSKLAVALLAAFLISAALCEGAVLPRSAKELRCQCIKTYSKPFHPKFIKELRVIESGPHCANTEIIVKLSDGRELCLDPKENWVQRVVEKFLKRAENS
test name: inhibitors of NFkB activation in CF airway cells, SAR follow-up, KKLEB cells, panel, IL8 HTRF, NFkB-GFP (AID 651592);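 also: immortalized cystic fibrosis airway epithelial KKLEB cells with an NF-kB GFP reporter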
condition details: PAF/TNFa-induced NFkB-GFP / IL8 HTRF, IL8, PAF-induced, run 5
Collected IC50 values appear next to each entry.

Please review the entries below; each comes with its answer.
O=C(Nc1ccc(N2CCN(C(=O)c3ccccc3Cl)CC2)cc1)c1cncc(Br)c1 = 5.73 µM
CCOc1ccc(NCc2cc3c(C(C)(C)C)nn(-c4ccc(Cl)cc4)c3[nH]c2=O)cc1 = 0.236 µM
O=C(Nc1ccc(N2CCN(C(=O)c3ccccc3)CC2)cc1)c1cccnc1 = > 66 µM
O=C(Nc1ccc(N2CCN(C(=O)c3ccccc3F)CC2)cc1)c1ccncc1 = > 66 µM
O=C(Nc1ccc(N2CCN(C(=O)c3ccc(F)cc3)CC2)cc1)c1ccccn1 = > 66 µM
O=C(Nc1ccc(N2CCN(C(=O)c3ccccc3Cl)CC2)cc1)c1cc(Br)cc(Br)c1 = > 66 µM

Challenge: Send back Interleukin-8 (Homo sapiens) (UniProt P10145) IC50 of O=C(Nc1ccc(N2CCN(C(=O)c3ccccc3)CC2)cc1)c1cc(Br)cc(Br)c1 only.
Response given: > 66 µM

Challenge: Give the observed IC50 of CCOc1ccc(NCc2cc3c(-c4ccc(OC)c(OC)c4)nn(-c4ccccc4)c3[nH]c2=O)cc1 for Interleukin-8 (Homo sapiens) (UniProt P10145).
Response given: 1.66 µM

Challenge: Name the recorded IC50 of O=C(Nc1ccc(N2CCN(C(=O)c3ccc(F)cc3)CC2)cc1)c1cncc(Br)c1 , assay system Interleukin-8 (Homo sapiens) (UniProt P10145).
Response given: 3.53 µM

Reference for the values: PubChem BioAssay AID651592
